Values compiled from the supplement of paper PMC10567573.

B1: PLK2 (parent)
chain: MELLRTITYQPAASTKMCEQALGK

Variants of: B1
assay: protein stability index of a GFP-peptide fusion (GPS, HEK-293T) (PSI 1-6); higher = more stable;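 note: lentivirally expressed fusions sorted by FACS into six bins by GFP to DsRed ratio, PSI derived from sequencing read proportions per bin multiplied by bin number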
testContext: c terminus: a fixed tail appended
Measured protein stability index, listed per entry.

Example entries begin here.
> print(dat)
                     sequenceentry  result
1   MELLRTIIYQPAASTKMCEQALGK [T8I]    3.71
2  MELLRTITYQRAASTKMCEQALGK [P11R]    2.16
3  MELLRTITYQPAASHKMCEQALGK [T15H]    3.23
4  MELLRTITYQPAKSTKMCEQALGK [A13K]    2.61
5  MELLRTITYQPAASTKMCETALGK [Q20T]    3.59

protein stability index measured on MELLRTITYEPAASTKMCEQALGK [Q10E] = 2.5

protein stability index measured on MELLRTGTYQPAASTKMCEQALGK [I7G] = 3.72

protein stability index measured on MELLRTITYQPAASTKMQEQALGK [C18Q] = 1.57

protein stability index measured on MPLLRTITYQPAASTKMCEQALGK [E2P] = 2.73

protein stability index measured on MELLRTITYQPAASLKMCEQALGK [T15L] = 2.23

protein stability index measured on MELLRTITYQPAASTKMLEQALGK [C18L] = 2.71

protein stability index measured on AELLRTITYQPAASTKMCEQALGK [M1A] = 2.18
